Source listed as patent EP1192182B1.

Target: T1, human PACAP/VIP R2 (PACAP R3) receptor (human, UniProt P41587 24-438)
T1 sequence (looked up): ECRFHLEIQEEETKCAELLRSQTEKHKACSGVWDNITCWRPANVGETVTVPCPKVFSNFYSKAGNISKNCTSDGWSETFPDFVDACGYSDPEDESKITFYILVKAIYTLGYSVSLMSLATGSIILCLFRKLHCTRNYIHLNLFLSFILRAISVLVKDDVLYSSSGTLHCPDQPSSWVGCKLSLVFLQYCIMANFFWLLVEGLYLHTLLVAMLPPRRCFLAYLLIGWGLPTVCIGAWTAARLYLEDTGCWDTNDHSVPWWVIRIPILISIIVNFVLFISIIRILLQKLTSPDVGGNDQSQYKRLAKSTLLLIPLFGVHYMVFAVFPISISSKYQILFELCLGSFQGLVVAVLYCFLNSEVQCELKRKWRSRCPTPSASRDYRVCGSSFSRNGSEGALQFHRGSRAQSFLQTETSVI
Test: cell-based or functional assay
No end group written: not given here.
Assay Endpoint: R3 EC50, nM (cAMP SPA) (nM)
# output: bare number, implied unit nM

What does the data say about its R3 EC50, nM (cAMP SPA)? Entry: HSDAVFTDNYTRLRKQMAAKKYLNSIKNKW [rR3P169]
0.2

What does the data say about its R3 EC50, nM (cAMP SPA)? Entry: HSDAVFTDNYTRLRKQVAAKKYLQSIKNKRYSWCEPGWCR [rR3P171]
0.4

What does the data say about its R3 EC50, nM (cAMP SPA)? Entry: HSDAVFTDNYTRLRKQMAAKKYLNSIKNKQ [rR3P165]
0.5

What does the data say about its R3 EC50, nM (cAMP SPA)? Entry: HSDAVFTDNYTRLRKQMAAKKYLNSIKNRI-NH2 [PAC27]
1.1

What does the data say about its R3 EC50, nM (cAMP SPA)? Entry: ESDGIFTDSYSRYRKQMAVKKYLAAVL [R3P173]
200

What does the data say about its R3 EC50, nM (cAMP SPA)? Entry: HSDAVFTDDYTRLRKEVAAKKYLESIKDKRY [R3P172]
2.6

What does the data say about its R3 EC50, nM (cAMP SPA)? Entry: HSDAVFTDNYTRLRKQMAAKKYLNSIKNKT [rR3P167]
1
